Origin of measurements: patent US20230137562A1

Let's look at some molecules and their measured IC50.
# Tested on: Ac-VQIINK-NH2 (Homo sapiens, UniProt P10636)
# Measurement description: Inhibition of VQIINK aggregation with peptide inhibitors (ThT)
Peptide text beside a SMILES is read from it.
Answer in µM, number only, no unit symbol.

Sample answers from the record:
Molecule	IC50 (µM)
CC[C@H](C)[C@H](N)C(=O)N[C@@H](Cc1c[nH]c2ccccc12)C(=O)N[C@H](C(=O)N[C@@H](CCCNC(=N)N)C(=O)N[C@@H](CC(C)C)C(=O)N[C@@H](Cc1c[nH]c2ccccc12)C(=O)O)[C@@H](C)CC [compound 50] (H-IWIRLW-OH)	2.12
CC[C@H](C)[C@H](NC(=O)[C@H](CCC(N)=O)NC(=O)[C@@H](NC(=O)[C@H](CCCNC(=N)N)NC(=O)[C@@H](N)Cc1c[nH]c2ccccc12)[C@@H](C)CC)C(=O)N[C@@H](CCCNC(=N)N)C(=O)N[C@@H](Cc1c[nH]c2ccccc12)C(=O)O [compound 69] (H-WRIQIRW-OH)	2.17
CC[C@H](C)[C@H](NC(=O)[C@H](CCCNC(=N)N)NC(=O)[C@@H](NC(=O)[C@@H](N)Cc1c[nH]c2ccccc12)[C@@H](C)CC)C(=O)N[C@@H](CCCNC(=N)N)C(=O)N[C@@H](Cc1ccc(O)cc1)C(=O)N[C@@H](Cc1c[nH]c2ccccc12)C(=O)O [compound 152] (H-WIRIRYW-OH)	6.02
CC[C@H](C)[C@H](NC(=O)[C@H](Cc1c[nH]c2ccccc12)NC(=O)[C@@H](NC(=O)[C@H](CCCNC(=N)N)NC(=O)[C@@H](N)Cc1c[nH]c2ccccc12)[C@@H](C)CC)C(=O)N[C@@H](CCCNC(=N)N)C(=O)N[C@@H](CC(C)C)C(=O)N[C@@H](Cc1c[nH]c2ccccc12)C(=O)O [compound 202] (H-WRIWIRLW-OH)	3.97

Enquiry: Field: IC50 (Ac-VQIINK-NH2 (Homo sapiens, UniProt P10636)). Entry: CC[C@H](C)[C@H](NC(=O)[C@H](CCCNC(=N)N)NC(=O)[C@@H](NC(=O)[C@@H](N)CCCNC(=N)N)[C@@H](C)CC)C(=O)N[C@@H](Cc1c[nH]c2ccccc12)C(=O)N[C@@H](CC(C)C)C(=O)N[C@@H](Cc1c[nH]c2ccccc12)C(=O)O [compound 26] (H-RIRIWLW-OH)
Return: 1.93

Enquiry: Item: CC[C@H](C)[C@H](NC(=O)[C@H](C)NC(=O)[C@@H](N)Cc1c[nH]c2ccccc12)C(=O)N[C@@H](CCCNC(=N)N)C(=O)N[C@H](C(=O)N[C@@H](CCCNC(=N)N)C(=O)N[C@@H](Cc1c[nH]c2ccccc12)C(=O)O)[C@@H](C)CC [compound 124] (H-WAIRIRW-OH)
Return: 1.94

Enquiry: Item: CC[C@H](C)[C@H](NC(=O)[C@H](CCCNC(=N)N)NC(=O)[C@@H](NC(=O)[C@H](CCCNC(=N)N)NC(=O)[C@@H](N)CC(C)C)[C@@H](C)CC)C(=O)N[C@@H](CCCNC(=N)N)C(=O)N[C@@H](Cc1c[nH]c2ccccc12)C(=O)O [compound 139] (H-LRIRIRW-OH)
Return: 4.31
